src = PubChem BioAssay (NCI)

assay method text: NCI Yeast Anticancer Drug Screen. Data for the mec2-1 strain (AID 157)
assay setup: S. cerevisiae mec2-1 strain, at 50.0 µM, stronger effect = higher value
Compounds without any hit were thinned out: in the full panel of roughly 79,000, 15% have a hit.
Listed molecules paired with reported growth inhibition

molecule	growth inhibition [%]
O=C1C=CC(=O)N1c1cccc2c1CCCC2	93.8
C=C1C(=O)OC2CC3(C)CCCC(C)C3=CC12 (centres undefined)	46.9
CSc1nc(C)c(C(=O)CCN2CCN(c3ccccn3)CC2)s1	78
C/C=C/c1cc2c(c(=O)o1)C(=O)[C@@H](O)[C@H](C)O2	2
COc1cc2c(c(OC)c1OC)-c1ccc(NCc3ccccc3)c(=O)cc1[C@@H](NC(C)=O)CC2	80.8
COc1cc(NCc2ccc3nc(N)nc(N)c3c2C)cc(OC)c1OC (tested in a mixture with another compound)	51.8
COc1cc([C@@H]2c3cc4c(cc3[C@H](OC3OC5COC(c6ccccc6)OC5C(O)C3O)[C@H]3COC(=O)[C@H]23)OCO4)cc(OC)c1OC (some centres undefined)	81
CCCCCCCCc1cc(Cl)c(O)c(Cl)c1	99.6
CN1CCc2cc3c(c4c2C1C(O)c1ccccc1-4)OCO3 (centres undefined)	17.7
NNc1cccc([N+](=O)[O-])c1	84.2
CCc1cccc(CC)c1N1C(=O)C=CC1=O	94.2
CN1CCC(CN2c3ccccc3Sc3ccccc32)C1 (centres undefined)	-22.9
CCCCCCCCCCCC[n+]1ccccc1 (tested in a mixture with another compound)	99.1
CCOC(=O)c1c(C)[nH]c2ccc(O)cc12	96
O=C(c1ccccc1)C(Br)C(Br)c1ccccc1 (centres undefined)	98.8
O=[N+]([O-])c1cc(-c2ccccc2)c(O)c([N+](=O)[O-])c1	88.8
CCCCCCN(CCCCCC)CCCNc1nccc2ccccc12	36.5
CCCCCCC1N=C(N)N=C(N)N1c1cccc(Cl)c1 (centres undefined)	48.8
Cc1ccc(Nc2n[nH]c(=S)s2)cc1F	78.2
CCSc1nc2ccccc2o1	39.6
COc1cc(OC)c(/C=C/c2c3ccccc3cc[n+]2C)c(OC)c1	49.5
Cc1onc(-c2ccccc2)c1C(=O)N/N=C/c1cc(Cl)cc(Cl)c1O	88.5
CCCCCCCCCCCCSC(=N)N	99
CCCCCCCCCCCCNCCCc1ccccc1	99.2

====

assay method text: NCI Yeast Anticancer Drug Screen. Data for the bub3 strain (AID 167)
assay setup: S. cerevisiae bub3 mutant strain, at 5.0 µM (retest, dose inferred, filed as 0.5), stronger effect = higher value
Description: Growth inhibition of yeast strains with defined genetic alterations is measured as a screen for potential anti-cancer activity. Selected strains with alterations in DNA damage repair or cell cycle control were exposed to compounds and growth inhibition was measured relative to vehicle treated controls. The strain used in this assay is bub3
This is part of a sample that, as a whole, favours compounds with a hit. Of some 79,000 tested, about 15% had one in any assay. *1 amine or outer side, *2 acyl side, *3 side chain or, on linkers, in order; H or OH if unused. Where a SMILES comes first, the peptide text is derived from it. Bridges are numbered along the chain shown (N, C = ends). Roman numbers before positions name the chains, in order. [ ]: non-standard residue; d: D form. Actinocin(1to9) = Cc1c2oc3c(C)ccc(C(=O)[*:2])c3nc-2c(C(=O)[*:1])c(N)c1=O; NMeV = CN[CH](C(=O)O)C(C)C; Sar = CNCC(=O)O

compound	unit string	growth inhibition
CC(C)(C)c1ccc(O)c(Br)c1	%	31
CN1CCC(CN2c3ccccc3Sc3ccccc32)C1 (stereo unspecified)	%	26
Cc1ccc2cccc(OC(=O)Nc3cccc(C(F)(F)F)c3)c2n1	%	42
CN(C)c1ccc(/C=C/c2nccc3ccccc23)cc1	%	4
O=C(CBr)c1ccc(OC(=O)c2ccccc2)cc1	%	100
CCOc1ccc(C(C[N+](=O)[O-])Sc2ccccc2N)cc1 (stereo unspecified)	%	32
CCCCCCCCCCCCNCCCc1ccccc1	%	99
CCC(C)C1NC(=O)C(NC(=O)c2c3nc4c(C(=O)NC5C(=O)NC(C(C)CC)C(=O)N6CCCC6C(=O)N(C)CC(=O)N(C)C(C(C)C)C(=O)OC5C)ccc(C)c4oc-3c(C)c(=O)c2N)C(C)OC(=O)C(C(C)C)N(C)C(=O)CN(C)C(=O)C2CCCN2C1=O (stereo unspecified) (I: TIP[Sar][NMeV] / II: TIP[Sar][NMeV]; ester I:1-I:C, II:1-II:C; linker I:N-II:N via Actinocin(1to9); configuration not given here)	%	43
Fc1ccc(NCCS)cc1	%	10
COC1CC(C)C(OC)c2cc(O)cc(c2O)NC(=O)/C(C)=C/C=C\C(C)C(OC(N)=O)/C(C)=C\C(C)C1OC (stereo unspecified)	%	97
CCOc1cc(F)c([N+](=O)[O-])cc1[N+](=O)[O-]	%	91
CCCCCCCCCCCC[n+]1ccccc1 (tested in a mixture with another compound)	%	88
CN=C(N)N/N=C(\c1ccccc1)c1ccc(Br)cc1	%	5
CC1CC(C)(C)OB(OC(C)CC(C)(C)OB2OC(C)CC(C)(C)O2)O1 (stereo unspecified)	%	1
O=C/C=C/c1ccc([N+](=O)[O-])cc1	%	17
c1ccc(C2NCCNC2c2ccccc2)cc1 (stereo unspecified)	%	4
Clc1ccccc1C(c1ccccc1)(c1ccccc1)n1ccnc1	%	34
Nc1ncnc2c(C3OC(CO)C(O)C3O)c[nH]c12 (stereo unspecified)	%	45
O=C(c1ccccc1)C(Br)[N+](=O)[O-] (stereo unspecified)	%	100
O=[N+]([O-])c1cc(-c2ccccc2)c(O)c([N+](=O)[O-])c1	%	17
O=C(CO)NCCO	%	5
